# systemName: T1, PUF4 RNA-binding domain (Saccharomyces cerevisiae, UniProt P25339 537-888)
# T1 sequence: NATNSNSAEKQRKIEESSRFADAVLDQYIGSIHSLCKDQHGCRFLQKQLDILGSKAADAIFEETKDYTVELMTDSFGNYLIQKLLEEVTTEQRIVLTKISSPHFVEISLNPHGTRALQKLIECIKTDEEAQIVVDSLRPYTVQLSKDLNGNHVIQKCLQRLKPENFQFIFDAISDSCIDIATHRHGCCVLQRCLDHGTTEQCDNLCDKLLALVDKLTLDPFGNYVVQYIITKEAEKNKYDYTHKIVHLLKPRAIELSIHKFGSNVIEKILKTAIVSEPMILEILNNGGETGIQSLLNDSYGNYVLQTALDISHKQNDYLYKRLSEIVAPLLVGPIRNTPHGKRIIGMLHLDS
# testProtocol: Mg; RNA-MaP; 20 mM Na-HEPES pH 7.4, 30 mM KOAc, 0.75 mM MgCl2, 0.1% Tween-20, 5% glycerol, 0.1 mg/mL BSA, 2 mM DTT; 25 C; 0.0125-409.6 nM protein
# conditionDescription: tags: N-His6-TEV cleaved; C-SNAP kept, Cy3B-labelled; label: tethered on chip by stalled RNA polymerase
pKd: −log10 of the molar value.
Binary classification by pKd, with 7 as an inclusive lower bound for 1; all other cases are -1.

{"columns": ["binder", "labelValue"],
 "data": [
  ["Ic_S2_P3E.1_K3.1_C3.1_H3.1_A3.1_[T5C]_[A6T]_F3.1_[T7C]_[A8T]_T3.1 (ssRNA) RNA: UUUGAUUAAUAUGAUAUCGUUCUUUCUUGUACUCUUUCUUUCUCGAUAUCAUAUUAAUCUUU", 1],
  ["Ie_S4_P3E.2_K3.1_C3.2_H3.1_[+3C]_A3.1_F3.1_T3.2 (ssRNA) RNA: UUUGACAACUGAUCGUUCUUUCUCUUGUCAUAUAUAUUCUUUCUCGAUCAGUUGUCUUU", 1],
  ["UCUCUUUGUGUUAUGAUCUCUU (ssRNA) [Ib_S1_P5E.1_K5.1_C5.1_H5.1_[A4G]_A5.1_F5.1_[T9G]_T5.1]", -1],
  ["UCUCUUUGUAUAUUUUCAUCUCUU (ssRNA) [Ie_S1_P4E.1_K4.1_C4.1_H4.1_A4.1_F4.1_[+8TTC]_T4.1]", 1],
  ["UCUCUUUGUGUCUAUCUCUU (ssRNA) [Ib_S1_P3E.1_K3.1_C3.1_H3.1_[A4G]_A3.1_[A6C]_F3.1_T3.1]", -1],
  ["UCUCUUCUUCCUCUGUAUAUAUAUCUCUU (ssRNA) [Ie_S1_P3E.2_K3.1_C3.2_H3.1_[+1CCTCT]_A3.1_F3.1_T3.2]", 1],
  ["UCUCUUUCUGUAUUAUUAACUCUCUU (ssRNA) [Id_ii_S1_P5E.2_K5.1_C5.2_[C-2T]_[T-1C]_H5.1_A5.1_F5.1_T5.2_[T11A]_[A12C]]", 1],
  ["Id_ii_S2_P4E.3_K4.2_C4.2_[C-2G]_[T-1C]_H4.2_A4.1_F4.1_T4.2_[G10A] (ssRNA) RNA: UUUGAUUAAUAUGAUAUCGUUCUUUCUGCUAUAUAUUAAUUUCUUUCUCGAUAUCAUAUUAAUCUUU", 1],
  ["Ic_S4_P5E.1_K5.1_C5.1_H5.1_A5.1_[T5G]_[A7C]_F5.1_[T8G]_[A10G]_T5.1 (ssRNA) RNA: UUUGACAACUGAUCGUUCUUUCUUGUAGUCGUGUUCUUUCUCGAUCAGUUGUCUUU", -1],
  ["UCUCUUUAUAUAUUAUUAAUUCUCUU (ssRNA) [Id_ii_S1_P5E.3_K5.2_C5.2_[C-2T]_[T-1A]_H5.2_A5.1_F5.1_T5.2_[T11A]_[A12T]]", 1],
  ["Ie_S2_P4E.1_K4.1_C4.1_H4.1_[+1TTCCT]_A4.1_F4.1_T4.1 (ssRNA) RNA: UUUGAUUAAUAUGAUAUCGUUCUUUCUUUUCCUGUAUAUUAUUCUUUCUCGAUAUCAUAUUAAUCUUU", 1],
  ["UCUCUUUGUAUCAUAUCUCUU (ssRNA) [Ic_S1_P4E.1_K4.1_C4.1_H4.1_A4.1_[A6C]_[T7A]_F4.1_T4.1]", 1],
  ["UCUCUUUUUAUUAUUUUCUCUU (ssRNA) [Ib_S1_P5E.1_K5.1_C5.1_H5.1_[G2T]_A5.1_F5.1_[A10T]_T5.1]", -1],
  ["ACAAACCAUAUAUAUAGCACAAAC (ssRNA) [Id_ii_S3_P3E.3_K3.2_C3.2_[T-1A]_H3.2_A3.1_F3.1_T3.2_[T9G]_[A10C]]", -1],
  ["ACAAACAUAACACUAUAUAACAAAC (ssRNA) [Id_i_S3_P3E.7_K3.3_C3.3_[T-3A]_[C-2T]_[T-1A]_H3.3_A3.1_F3.1_T3.2]", -1],
  ["UCUCUUUCUUGUAUUAUUAUGUCUCUU (ssRNA) [Id_iii_S1_P5E.5_K5.1_C5.3_H5.1_A5.1_F5.1_T5.2_[A12G]]", 1],
  ["UCUCUUCCACACUUAUUAUAUCUCUU (ssRNA) [Id_ii_S1_P5E.4_K5.3_C5.2_[T-1C]_H5.3_A5.1_F5.1_T5.2]", -1],
  ["UCUCUUCUUAUAUAUACCUCUCUU (ssRNA) [Id_ii_S1_P3E.3_K3.2_C3.2_H3.2_A3.1_F3.1_T3.2_[T9C]_[A10C]]", -1],
  ["Id_ii_S4_P3E.3_K3.2_C3.2_[C-2A]_[T-1A]_H3.2_A3.1_F3.1_T3.2_[T9C]_[A10G] (ssRNA) RNA: UUUGACAACUGAUCGUUCUUUCUAAUAUAUAUACGUUCUUUCUCGAUCAGUUGUCUUU", -1],
  ["Ic_S2_P5E.1_K5.1_C5.1_H5.1_A5.1_[T6A]_F5.1_[T9C]_T5.1 (ssRNA) RNA: UUUGAUUAAUAUGAUAUCGUUCUUUCUUGUAUAAUCAUUCUUUCUCGAUAUCAUAUUAAUCUUU", 1]
]}

Cited source: paper PMC9352680
